- Assayed target: AdipoR1 (Homo sapiens, UniProt Q96A54)
- Sequence (Q96A54 1-375): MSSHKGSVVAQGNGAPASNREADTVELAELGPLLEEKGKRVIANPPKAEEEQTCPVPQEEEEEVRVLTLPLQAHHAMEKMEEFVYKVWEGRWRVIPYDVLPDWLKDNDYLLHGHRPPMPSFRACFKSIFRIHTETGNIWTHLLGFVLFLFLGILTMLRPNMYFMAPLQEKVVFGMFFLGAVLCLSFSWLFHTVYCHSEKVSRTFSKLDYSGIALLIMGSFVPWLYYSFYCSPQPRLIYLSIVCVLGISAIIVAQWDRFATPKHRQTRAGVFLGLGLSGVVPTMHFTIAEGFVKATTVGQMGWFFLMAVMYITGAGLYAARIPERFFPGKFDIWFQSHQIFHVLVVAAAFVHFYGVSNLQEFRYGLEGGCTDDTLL
- Assay notes: Measurement of AMPK phosphorylation ability (Assay 1), HEK 293T cells, Western blotting
- Type: cell-based
- Design: HEK 293T cells (ATCC; CRL-3216, medium; host or cells: HEK 293T
- Assay context: 25 μM, 10 minutes

# Molecule, Assayed target, pAMPK/AMPK (%)
measured = [
    ("COc1ccccc1CN1CCN(C(=O)CCNC(=O)c2ccc(Br)cc2)CC1", "AdipoR1 (Homo sapiens, UniProt Q96A54)", 41.20),
    ("CCOc1ccc(C(=O)N2CCC(NC(=O)COc3ccc(N4CCCC4=O)cc3)CC2)cc1", "AdipoR1 (Homo sapiens, UniProt Q96A54)", 45.54),
    ("CC(C)c1ccc(OCC(=O)NC2CCN(C(C)c3ccccc3)CC2)cc1 (centres unmarked)", "AdipoR1 (Homo sapiens, UniProt Q96A54)", 77.78),
    ("CCOc1ccc(OCC(=O)NC2CCN(Cc3ccc(Cl)c(Cl)c3)CC2)cc1", "AdipoR1 (Homo sapiens, UniProt Q96A54)", 112.70),
    ("Cc1ccc(C(=O)N2CCC(NC(=O)COc3ccc(C(F)(F)F)cc3)CC2)cc1", "AdipoR1 (Homo sapiens, UniProt Q96A54)", 77.49),
]

* * *

- Assayed target: UniProtKB Q96A54
- Sequence (Q96A54 1-375): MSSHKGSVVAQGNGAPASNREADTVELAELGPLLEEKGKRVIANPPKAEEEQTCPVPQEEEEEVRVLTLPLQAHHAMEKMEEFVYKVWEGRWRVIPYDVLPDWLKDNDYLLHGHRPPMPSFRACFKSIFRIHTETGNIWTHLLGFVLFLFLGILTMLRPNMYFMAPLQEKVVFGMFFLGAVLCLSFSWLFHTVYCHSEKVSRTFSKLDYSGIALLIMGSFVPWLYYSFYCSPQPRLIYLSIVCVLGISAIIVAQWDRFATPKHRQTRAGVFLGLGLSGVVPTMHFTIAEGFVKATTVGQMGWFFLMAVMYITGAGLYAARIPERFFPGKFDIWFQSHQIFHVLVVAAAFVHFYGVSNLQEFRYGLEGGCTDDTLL
- Assay notes: Measurement of AMPK phosphorylation ability (Assay 2), HEK 293T cells with unrelated or AdipoR1 siRNA
- Assay type: cell-based
- Set-up: HEK 293T cells (ATCC; CRL-3216, medium; host or cells: HEK 293T
- Assay context: AdipoR1 siRNA
// values below are reported pAMPK/AMPK (ratio) siRNA, AdipoR1 siRNA
Test readout: pAMPK/AMPK (ratio) siRNA, AdipoR1 siRNA

# Smiles code, Units, Result
rows = [
    ("O=C(COc1ccc(C(F)(F)F)cc1)NC1CCN(C(=O)c2ccccc2F)CC1", "ratio", 2.01),
    ("NC(=O)c1ccc(OCC(=O)NC2CCN(Cc3ccc(Br)cc3)CC2)cc1", "ratio", 1.92),
    ("COc1cc(C(C)=O)ccc1OCC(=O)NC1CCN(Cc2ccc(Cl)c(Cl)c2)CC1", "ratio", 3.49),
    ("COc1ccc(CN2CCC(NC(=O)COc3ccc(C(F)(F)F)cc3)CC2)cc1F", "ratio", 2.01),
    ("O=C(COc1ccc(Oc2ccccc2)cc1)NC1CCN(Cc2ccccc2)CC1", "ratio", 2.56),
    ("CCOc1ccc(OCC(=O)NC2CCN(Cc3cccc(C(F)(F)F)c3)CC2)cc1", "ratio", 2.25),
    ("O=C(COc1ccc(Cl)cc1)NC1CCN(Cc2ccc(Cl)c(Cl)c2)CC1", "ratio", 2.63),
    ("O=C(COc1ccc(Oc2ccccn2)cc1)NC1CCN(Cc2ccc(F)cc2)CC1", "ratio", 3.16),
]

Ref: patent US20170298051A1
